meta.source: the supplement of paper PMC9732359

# experimentNotes: protein stability index of a GFP-peptide fusion (yeast GPS) (PSI 1-4); higher = more stable; sorted into four equal gates, so the index is relative within each strain
# runConditions: san1∆
assayEndpoint: protein stability index
Would you mind answering with just the numeric figure?

Note down protein stability index recorded for TKRESLNARMFLKYYGA [SIR2]
3.14

Note down protein stability index recorded for VSTLIAGFDPRDDEPKL [PRE6]
3.12

Note down protein stability index recorded for KADDDSVTIISAGNDKM [ASC1]
3.16

Note down protein stability index recorded for NGGLIHVVTREKGPQVC [RPO21]
2.37

Note down protein stability index recorded for KRKCGHTNQLRPKKKLK [RPL40A]
2.94

Note down protein stability index recorded for ISVGLYDTTPLLDTNSL [SKI6]
2.48

Note down protein stability index recorded for GIFGMDFYVVMNRPGAR [RPL11A]
2.49

Note down protein stability index recorded for EPILGQITLTFISELCS [YML103C/NUP188]
3.1

Note down protein stability index recorded for GKGLQSAIDVLDPLTKD [RPN2]
2.44

Note down protein stability index recorded for FDQAGKKVSRRNARAAR [RPL13B]
2.67

Note down protein stability index recorded for VDAGIALNSMCASIPIA [RRP46]
1.71

Note down protein stability index recorded for LGKCSRITDASLFQLSK [GRR1]
3.14

Note down protein stability index recorded for DVVYALKRQGRTLYGFG [HHF1]
2.34

Note down protein stability index recorded for QISIIDIWSISKKRQAE [YML031W/NDC1]
2.54

Note down protein stability index recorded for SPSPILLTSAGCKNGSF [NUT1]
1.61

Note down protein stability index recorded for QKSPKIRDPLTQTGLLQ [RPC82]
2.02

Note down protein stability index recorded for RQPVEGRSRDGGLRFGE [RPB2]
2.81

Note down protein stability index recorded for VDLEEVMDTIQEQITLY [SSN8]
3.16

Note down protein stability index recorded for MAAQKSFRIKQKMAKAK [RPL39]
2.25

Note down protein stability index recorded for NVRSVIRSSRSRGIVIG [RPP1]
3.15

Note down protein stability index recorded for IYSPLHSFIKMLQMKGK [SIR2]
1.91

Note down protein stability index recorded for MSQAVNAKKRVFKTHSY [RPS15]
2.19

Note down protein stability index recorded for VPSHVPQVLINRDPVKH [SIR2]
3.06

Note down protein stability index recorded for PKEVDGLEVGPVVQVGI [IRR1]
3.37

Note down protein stability index recorded for LSHYAKIRPWRTFRLNE [RPO31]
3.06

Note down protein stability index recorded for KEQENITIQDLLFPKST [DPB4]
2.52

Note down protein stability index recorded for QDGGVTPYSNESGLVNA [RPO21]
2.63

Note down protein stability index recorded for SLNNSDSLISGVKQKIT [BRR2]
1.61

Note down protein stability index recorded for DHINWEHIKQDYVASLN [NSL1]
2.72

Note down protein stability index recorded for VKEIVLPLFYDLLNAAS [IRR1]
2.78

Note down protein stability index recorded for PSTRCKLKLLRMERIKD [RPT2]
1.88

Note down protein stability index recorded for QNIKAPSVKRQKMAELE [PRP8]
3.3

Note down protein stability index recorded for CCINAAFLALVDAGIAL [RRP46]
2.06

Note down protein stability index recorded for DDQLKQRRQNIRDLEKL [RPT4]
3.12

Note down protein stability index recorded for DFDLFKEVLPDLQNLNL [YJL039C/NUP192]
3.19

Note down protein stability index recorded for VDFDGLDIKRVGSENVE [SNF12]
3.49

Note down protein stability index recorded for NELLEMVGLASGNDSMA [BRR2]
3.11

###

# experimentNotes: protein stability index of a GFP-peptide fusion (yeast GPS) (PSI 1-4); higher = more stable; sorted into four equal gates, so the index is relative within each strain
# runConditions: ubr1∆
assayEndpoint: protein stability index

Note down protein stability index recorded for AEQPLPVSPLDIYSDEA [RPS2]
2.92

Note down protein stability index recorded for FGRKNDRQCMIMDELLS [DIB1]
2.73

Note down protein stability index recorded for AAKEGLALSSNISRDFQ [COR1]
2.76

Note down protein stability index recorded for QQIQEQVLKCKESWDPN [YGR119C/NUP57]
3.52

###

# experimentNotes: protein stability index of a GFP-peptide fusion (yeast GPS) (PSI 1-4); higher = more stable; sorted into four equal gates, so the index is relative within each strain
# runConditions: pdr5∆
Answer each item with its documented protein stability index.
Would you mind answering with just the numeric figure?

Note down protein stability index recorded for NFESISARSSVHESLVT [SRB8]
2.1

Note down protein stability index recorded for SYDRTLLIADSRRPEPK [RPS16A]
2.48

Note down protein stability index recorded for ALAFGYVKSLHKQISAE [SIN4]
2.21

Note down protein stability index recorded for LMQNMMNMFGGGMGGGM [SRP54]
2.53

Note down protein stability index recorded for QNPMRDLKIEKLVLNIS [RPL11A]
3.09

Note down protein stability index recorded for KRPYESSRLDAELKLAG [RPS9A]
3.05

###

Answer each item with its documented protein stability index.
# experimentNotes: protein stability index of a GFP-peptide fusion (yeast GPS) (PSI 1-4); higher = more stable; sorted into four equal gates, so the index is relative within each strain
# runConditions: doa10∆
Would you mind answering with just the numeric figure?

Note down protein stability index recorded for HGIKDIPIGHVHVIHFQ [AAR2]
2.89

Note down protein stability index recorded for KVPDISSDGQLKKFRES [BRR2]
3.36

Note down protein stability index recorded for PYMPYYYYYHPMNAPTP [DSN1]
2.52

Note down protein stability index recorded for MGKRVDFSARTVISGDP [RPO21]
2.98

Note down protein stability index recorded for SHAVEFFMSERSSRLHI [YML103C/NUP188]
2.5

Note down protein stability index recorded for KTAMAELALLNHWRQNK [BRR2]
1.39

Note down protein stability index recorded for VNECIAQSHQRFNAKVS [CDC53]
2.15

Note down protein stability index recorded for RFFWKRSTNKKSKILRK [UBP6]
1.19

Note down protein stability index recorded for AAQTNATFLKLAAPQLV [RPT5]
2.62

Note down protein stability index recorded for DIPTIADEHFWADNYER [BRN1]
3.14

Note down protein stability index recorded for TSSQKEPFFLVTKITDM [SRB8]
2.36

Note down protein stability index recorded for SWASEGISKKTRIAGVV [RPS8A]
2.54

Note down protein stability index recorded for KDKGVYVVTSDEHPKTL [SIR2]
2.78

Note down protein stability index recorded for GRYLLTPPDDLHPYVPS [SRB8]
2.36

###

# experimentNotes: protein stability index of a GFP-peptide fusion (yeast GPS) (PSI 1-4); higher = more stable; sorted into four equal gates, so the index is relative within each strain
# runConditions: pdr5∆
Answer each item with its documented protein stability index.

Note down protein stability index recorded for VDFSKYNTNFNLLLREL [SRP72]
3.24

Note down protein stability index recorded for RAASIRARVKAFPKDDR [RPL3]
1.46

Note down protein stability index recorded for ERVTALKNCKISNINIP [SMC1]
3.25

Note down protein stability index recorded for SPMLSISNLTQEQVQDY [FAS1]
2.97

Note down protein stability index recorded for EDGLGPLMAKSVKKAGA [ARP7]
3.48

Note down protein stability index recorded for DYLKNIIVENSGTSGDE [RPN2]
3.48

Note down protein stability index recorded for SALEQAIIYQRGKDGKL [YGL100W/SEH1]
3.22

Note down protein stability index recorded for GTSKYLINGHRAPQQSV [SMC2]
2.36

Note down protein stability index recorded for SGNDSMAGKVLILTSHN [BRR2]
2.28

Note down protein stability index recorded for LNEEAVIFLSSLLTLVG [YJL039C/NUP192]
2.72

Note down protein stability index recorded for CEISGSIEQLRNVVEDI [BRN1]
3.33

Note down protein stability index recorded for HWLQLAKGVYRPNGRKD [POP1]
3.12

Note down protein stability index recorded for KILITYGSSPKLLATST [SRB8]
1.33

Note down protein stability index recorded for DTDSKPSSQSQNDTPMF [YLR018C/POM34]
3.17

Note down protein stability index recorded for PFHSHLLVPASDLINKD [FAS1]
2.15

Note down protein stability index recorded for ATVPSGRPETYIWRYLP [RPO31]
1.81

Note down protein stability index recorded for QDEAELVEEKTPGLTFN [RPC82]
3.62

Note down protein stability index recorded for YNTSILEFRWLTSSKSV [SIN4]
1.91

Note down protein stability index recorded for NNLEPRQTTSNTGLLNK [RPN11]
3.24

Note down protein stability index recorded for GKEVEVLMETKNTQSPQ [SNU114]
3.6

Note down protein stability index recorded for AYVVNDTAPKPNIVEID [DLS1]
3.22

Note down protein stability index recorded for RRTYNTLEDKFLLLAVN [ISW2]
1.67

Note down protein stability index recorded for SYRLLPQINILQPIKGE [RPC40]
2.1

Note down protein stability index recorded for VRTSATFRLPKTLKLAR [RPL25]
2.35

Note down protein stability index recorded for SAKTRSHNWAAKAKRRH [RPL37B]
3.32

Note down protein stability index recorded for DIDGIMDNPRKLSKILR [SNU114]
2.96

Note down protein stability index recorded for EATLLTNSNNGSSNNNT [SNF5]
3.32

Note down protein stability index recorded for DPETTATQKESLEMVPK [RGR1]
3.07

Note down protein stability index recorded for LNAANYNIDANVIDTQR [ECM29]
2.37
